- Tested on: HCT-116
- method: NCI tumour cell line growth inhibition, 48 h
The source made the active and inactive calls. Rule as the data show it: active = GI50 up to about 1.1 µM and inactive = higher.
measured quantity: GI50

# compound, test result
records = [
    ("CC1(C)OC2COC3([C@@H]4OC(C)(C)O[C@@H]4CO)OC(C)(C)OC3C2O1 (stereo partly specified)", "> 100 µM (inactive)"),
]

Form field GI50, entry Cn1c2ccccc2n2c(=O)c(-c3ccc(Cl)cc3)nnc12 : > 100 µM (inactive)

get_value(item= CC1=NN(c2ccccc2)C(=O)/C1=C1\SC(c2ccccc2)(c2ccccc2)c2ccccc21 , readout=GI50) returns 50.4 µM (inactive)

In plain terms, O=C1COc2cc(N3CCN(c4cccc(C(F)(F)F)c4)CC3)ccc2N1 has a documented GI50 of > 100 µM (inactive)

GI50 recorded for this compound, Nc1ncnc2c1ncc(=O)n2C1CC(O)C(CO)O1 (stereo unspecified) , is > 100 µM (inactive)

Briefly, GI50 measured for CCCOc1ccc(/C=C/C2=[N+](CCO)CCO2)cc1 : > 100 µM (inactive)

====

- System: UO-31
- method: NCI tumour cell line growth inhibition, 48 h
Calls of active or inactive are those of the source. Rule as the data show it: active = GI50 up to about 1.1 µM and inactive = higher.
measured quantity: GI50

Example compounds with recorded GI50:
# compound, GI50
data = [
    ("CC(C)(C)c1ccc(-c2nc3ccc([N+](=O)[O-])cc3c(=O)o2)cc1", "32.9 µM (inactive)"),
    ("CC(O)C(C(=O)O)N(CC1(O)OCC(O)C(O)C1O)N=O (stereo unspecified)", "> 100 µM (inactive)"),
    ("Nc1ccc2c(=S)c3ccccc3[nH]c2c1", "27.9 µM (inactive)"),
    ("O=C(NNC(=O)c1ccco1)c1ccco1", "> 100 µM (inactive)"),
    ("C=CC[C@@]1(C)CCCCCCCCC[C@@](C)(CC=C)C1=O", "53.6 µM (inactive)"),
]

Note: attention shifts to another entry.
Kindly note the recorded GI50 for COc1cc(CNc2c3ccccc3nc3ccccc23)cc(OC)c1OC , which is 3.05 µM (inactive)

====

- Tested on: SN12C
- method: NCI tumour cell line growth inhibition, 48 h
The source made the active and inactive calls. Rule as the data show it: active = GI50 up to about 1.1 µM and inactive = higher.
We begin with a simple list: items and their reported GI50.

# example entries with known answers
# compound, GI50
data = [
    ("FC(F)(F)c1n[nH]c(SCc2ccc(Cl)cc2)n1", "> 100 µM (inactive)"),
    ("N#Cc1c(-c2ccccc2)[nH]c2ccccc2c1=O", "95.7 µM (inactive)"),
    ("CC(=O)OC1COC(n2c(-c3ccc(Cl)cc3)cc(-c3ccccc3)c(C#N)c2=S)C(OC(C)=O)C1OC(C)=O (stereo unspecified)", "9.25 µM (inactive)"),
    ("O=C(NNC(=O)/C(=C/c1cccc([N+](=O)[O-])c1)NC(=O)c1ccccc1)Nc1ccc(Cl)cc1", "14.5 µM (inactive)"),
    ("COC(=O)[C@H](CCSC)NC(=O)c1ccc(CNC(=O)/C(C)=C/c2ccccc2)cc1", "88.1 µM (inactive)"),
]

Could you now consider this next compound?
Lookup result for O=c1[nH]c2ccc(CC(=S)N3CCN(c4ccccc4)CC3)cc2o1 ; measured GI50: > 100 µM (inactive)

====

- Tested on: UACC-62
- method: NCI tumour cell line growth inhibition, 48 h
Active and inactive are the calls of the source. Rule as the data show it: active = GI50 up to about 1.1 µM and inactive = higher.
# output must be one of active, inactive

Past entries and their recorded results:
# compound, label class
records = [
    ("Cc1cc(C)c2c(n1)S(=O)(=O)N(CCCN1CCN(c3cccc(Cl)c3)CC1)C(C(=O)c1ccc(Br)cc1)=C2O", "inactive"),
    ("O=C1Nc2ccc(Br)cc2/C1=N/c1ccc2c(c1)OCO2", "inactive"),
    ("CCOC(=O)c1nc2ccccc2nc1Nc1ccc(C(=O)OC)s1", "inactive"),
    ("CC(C)[C@H](C)/C=C/[C@@H](C)C1CC[C@H]2[C@@]34C=C[C@]5(C[C@@H](O)CC[C@]5(C)[C@H]3CC[C@]12C)OO4 (stereo partly drawn)", "inactive"),
    ("CCC(=O)C(CCN1CCC2(CCCc3ccccc32)CC1)(c1ccccc1)c1ccccc1", "inactive"),
]

Exercise: What call does the record list for COc1cc2cc(C(=O)N3CC(CCl)c4c3cc(N)c3ccccc43)[nH]c2cc1OCCN(C)C (stereo not drawn) ?
Solution: active

Exercise: What classification did c1ccc2c(c1)c1c3c(c4c(n32)=NCCN4)CCC1 end up with in this test?
Solution: inactive

Exercise: State the result this test recorded for C[C@@H]1C[C@]2(C[C@@H](C)C3[C@@H](CC4(C)[C@@H]5CCC6C(C)(C)OC(=O)C=C[C@]67C[C@@]5(CC[C@]34C)OO7)O2)OC1=O (stereo partly drawn) .
Solution: inactive

====

- System: OVCAR-4
- method: NCI tumour cell line growth inhibition, 48 h
The source made the active and inactive calls. No stated cut-off is given here; in the data, active = GI50 up to about 1.1 µM and inactive = higher.
GI50 reference

# compound, GI50
rows = [
    ("Fc1ccccc1C1CC(c2ccc3ccccc3c2)=Nc2ccccc2S1 (stereo not given)", "> 100 µM (inactive)"),
]

Reported GI50 of CCCc1[nH]nc(C(N)=O)c1/N=N/N(C)C : 54.1 µM (inactive)

Documented GI50 of COc1cc(C(C)O)c[n+](CCC2CNc3ccccc32)c1 (stereo not given) : > 100 µM (inactive)

Notebook: COc1ccc(N[S+]([O-])c2c(C)cc(C)cc2C)cc1 (stereo not given) , GI50 read as 86.5 µM (inactive)

====

Listed next: entries and their corresponding GI50.
- Test system: SK-OV-3
- method: NCI tumour cell line growth inhibition, 48 h
Activity calls are given as the source filed them. Rule as the data show it: active = GI50 up to about 1.1 µM and inactive = higher.

So, CC12O[C@H](c3ccccc3)[C@H](c3ccccc3)N1C(=O)C1(C(=O)OCc3ccccc3)CC12 (stereo partly specified) ? Its GI50 was > 100 µM (inactive)

GI50 for C#CCNC(=O)N(CC#C)N=O is > 100 µM (inactive)

Looking up COc1ccc(C2S/C(=C\c3cccc(O)c3)C(=O)N2NC(=O)Cc2ccccc2)cc1 (stereo unspecified) , I see its GI50 listed as > 100 µM (inactive)

Memo: CC1=NNC(=O)C1C(CC(=O)c1c[nH]c2ccccc12)C(=O)O (stereo unspecified) , reported GI50: > 100 µM (inactive)

Entry COc1cc(O)c2c(c1)C(=O)c1cc3c(c(O)c1C2=O)C(OC1OC(C)C(O)C(O)C1OC)C(OC)C(C)(O)C3=O (stereo unspecified) — recorded GI50 = 3.2 µM (inactive)

Query Nc1ncnc2c1ncn2[C@]1(CO)C=C(CO)C(O)C1O (stereo partly specified) yields GI50 of > 100 µM (inactive)

====

- Tested on: TK-10
- method: NCI tumour cell line growth inhibition, 48 h
Calls of active or inactive are those of the source. Rule as the data show it: active = GI50 up to about 1.1 µM and inactive = higher.
Entry note: the call must match one of active, inactive

# compound, label class
measured = [
    ("CN(C)c1ccc(/C=C(\\C#N)C(=O)c2ccccc2)cc1Br", "inactive"),
    ("Cc1cc(C)c2c(n1)S(=O)(=O)N(CCCN1CCN(c3cccc(Cl)c3)CC1)C(C(=O)c1ccc(Br)cc1)=C2O", "inactive"),
    ("COc1ccc(C[C@H]2NC[C@H](OC(C)=O)[C@H]2OC(C)=O)cc1", "active"),
    ("Cc1ccc(S(=O)(=O)OCC23CCC(C2)C2CC23)cc1 (stereo unspecified)", "inactive"),
    ("COC(=O)c1cc2c3c(cc(NCCN)c2[nH]1)N(C(=O)c1cc2cc(OC)c(OC)c(OC)c2[nH]1)CC3CCl (stereo unspecified)", "active"),
    ("CC(=O)O[C@H]1C[C@]2(C)C(CCC3O[C@@]32C)[C@@]2(CC(c3ccoc3)OC2O)[C@@H]1C (stereo partly specified)", "inactive"),
    ("CC(=O)OC1COC(n2c(-c3ccc(Cl)cc3)cc(-c3ccccc3)c(C#N)c2=S)C(OC(C)=O)C1OC(C)=O (stereo unspecified)", "inactive"),
    ("COc1ccc(O)cc1C=O", "inactive"),
]

Exercise: For this compound, state the assay outcome: O=C1c2c(c3c4ccccc4[nH]c3c3[nH]c4ccccc4c23)C(=O)N1Cc1ccccc1
Solution: inactive

Exercise: Recorded test outcome, item CN(C)/C=N/c1c2ccccc2nc2ccccc12
Solution: inactive

Exercise: Recorded call for c1ccc(CNC2CC(NCc3ccccn3)CC(NCc3ccccn3)C2)nc1 (stereo unspecified) ?
Solution: inactive

Exercise: I'd appreciate the recorded outcome for CC(C)COC1Sc2ccccc2S1 from this test.
Solution: inactive

Exercise: // outcome(item) with item = CC(=O)Nc1cccc(N2C(=O)/C(=C\c3cccc(Oc4ccccc4)c3)SC2c2ccccc2)c1 (stereo unspecified)
Solution: inactive

====

- Tested on: HCT-116
- method: NCI tumour cell line growth inhibition, 48 h
The source made the active and inactive calls. Cut-off read from the data, not from the text of the source: active = GI50 up to about 1.1 µM and inactive = higher. Where a SMILES comes first, the peptide text is derived from it. Bridges are numbered along the chain shown (N, C = ends). [ ]: non-standard residue; d: D form. The star is where a group is joined. ξ: configuration not given here. ξNMePhe(4-NMe2) = CNC(Cc1ccc(N(C)C)cc1)C(=O)O; Picolinoyl(3-OH) = O=C(c1ncccc1O)*; ξPip(4-oxo) = O=C1CCNC(C(=O)O)C1; Phg = N[CH](C(=O)O)c1ccccc1; Abu = CC[CH](N)C(=O)O
GI50 overview

# count of solved cases: 2
# molecule, study system, measured quantity, test result
rows = [
    ("C[C@]12CCC(=O)C[C@H]1CCC(O)[C@@H]2Br (some centres undefined)", "HCT-116", "GI50", "> 100 µM (inactive)"),
    ("Cc1ccc(C2=C(C#N)C(N)OC3=C2COc2ccccc23)cc1 (centres undefined)", "HCT-116", "GI50", "31.9 µM (inactive)"),
]

Consider O=C(Nn1cc(F)c(=O)[nH]c1=O)C12CC3CC(CC(C3)C1)C2 . Its measured GI50 is 5.77 µM (inactive)

get_value(item= Cc1cccc(C(O)c2ccccn2)c1O (centres undefined) , readout=GI50) returns > 100 µM (inactive)

Record summary for CC1=C/C(O)CC(=O)Cc2nc(co2)C(=O)N2CCC=C2C(=O)OC(C(C)C)C(C)/C=C/C(=O)NC\C=C\1.CCC1NC(=O)C(NC(=O)c2ncccc2O)C(C)OC(=O)C(c2ccccc2)NC(=O)C2CC(=O)CCN2C(=O)C(Cc2ccc(N(C)C)cc2)N(C)C(=O)C2CCCN2C1=O (centres undefined) ({Picolinoyl(3-OH)}-T[Abu]P[ξNMePhe(4-NMe2)][ξPip(4-oxo)][Phg]; ester 1-C; configuration not given here) : reported GI50 = 6.4 µM (inactive)

According to the records, this molecule O=C(NC(Cc1ccc(I)cc1)C(=O)O)c1ccc(Cl)cc1 (centres undefined) displays GI50 of > 100 µM (inactive)

Entry under test: OC1c2c(ccc3c2CCC3)CC12Cc1ccccc1C2 (centres undefined) . Its GI50 was 16 µM (inactive)

Given item C[C@@H](NC(=O)Cn1c(Cl)nc2ccccc21)c1ccccc1 , the value recorded as its GI50 is > 100 µM (inactive)

Recorded result, C=Cc1nc2c(Cl)ncnc2n1Cc1ccccc1 , GI50: 2.06 µM (inactive)
